test_protocol: food/PPI effect on single-dose PK in healthy volunteers (phase 1)
Format: in vivo, human
run_conditions: male, human, plasma, oral, 300 mg, 300 mg alone, fed; read-out: AUCinf, Geometric LS Mean
quantity_name: AUC(0-inf) (ng·h/mL)

{"molecule": "COc1cc(O[C@H]2C(C)(C)[C@H](NC(=O)c3ccc(N4CCC(CN5CCN(c6ccc(C(=O)N[C@H]7CCC(=O)NC7=O)c(F)c6)CC5)CC4)cc3)C2(C)C)ccc1C#N [Compound A]", "unit_info": "ng·h/mL", "val": 10900}

###

test_protocol: preliminary PK in mCRPC participants (Phase 1/2)
Format: in vivo, human
run_conditions: male, human, plasma, oral, 500 mg, 500 mg QD, Mean (CV %); read-out: AUC0-24 Day 1

{"compound": "COc1cc(O[C@H]2C(C)(C)[C@H](NC(=O)c3ccc(N4CCC(CN5CCN(c6ccc(C(=O)N[C@H]7CCC(=O)NC7=O)c(F)c6)CC5)CC4)cc3)C2(C)C)ccc1C#N", "unit_info": "ng·h/mL", "AUC(0-t)": 3590}

###

test_protocol: preliminary PK in mCRPC participants (Phase 1/2)
Type: in vivo, human
run_conditions: male, human, plasma, oral, 480 mg, 480 mg QD, Mean (CV %); read-out: Cmax Day 21

{"molecule": "COc1cc(O[C@H]2C(C)(C)[C@H](NC(=O)c3ccc(N4CCC(CN5CCN(c6ccc(C(=O)N[C@H]7CCC(=O)NC7=O)c(F)c6)CC5)CC4)cc3)C2(C)C)ccc1C#N [Compound A]", "Cmax (ng/mL)": 644}

###

test_protocol: food/PPI effect on single-dose PK in healthy volunteers (phase 1)
Format: in vivo, human
run_conditions: male, human, plasma, oral, 200 mg, Fasted; read-out: Cmax, Geometric Mean (Geometric CV %)

{"compound": "COc1cc(O[C@H]2C(C)(C)[C@H](NC(=O)c3ccc(N4CCC(CN5CCN(c6ccc(C(=O)N[C@H]7CCC(=O)NC7=O)c(F)c6)CC5)CC4)cc3)C2(C)C)ccc1C#N", "Cmax [µg/mL]": 0.0361}

###

test_protocol: preliminary PK in mCRPC participants (Phase 1/2)
Format: in vivo, human
run_conditions: male, human, plasma, oral, 300 mg, 300 mg QD, Mean (CV %); read-out: Cmax Day 1

{"compound": "COc1cc(O[C@H]2C(C)(C)[C@H](NC(=O)c3ccc(N4CCC(CN5CCN(c6ccc(C(=O)N[C@H]7CCC(=O)NC7=O)c(F)c6)CC5)CC4)cc3)C2(C)C)ccc1C#N", "Cmax, ng/mL": 119}

###

test_protocol: food/PPI effect on single-dose PK in healthy volunteers (phase 1)
Format: in vivo, human
run_conditions: male, human, plasma, po, 200 mg, 200 mg single oral dose, fed (high-fat meal); read-out: median Tmax

{"compound": "COc1cc(O[C@H]2C(C)(C)[C@H](NC(=O)c3ccc(N4CCC(CN5CCN(c6ccc(C(=O)N[C@H]7CCC(=O)NC7=O)c(F)c6)CC5)CC4)cc3)C2(C)C)ccc1C#N", "Tmax, h": 12}

###

test_protocol: food/PPI effect on single-dose PK in healthy volunteers (phase 1)
Type: in vivo, human
run_conditions: male, human, plasma, oral, 300 mg, 300 mg Alone; read-out: Vz/F, Geometric Mean (Geometric CV %)
quantity_name: Vd/F (L)

{"compound": "COc1cc(O[C@H]2C(C)(C)[C@H](NC(=O)c3ccc(N4CCC(CN5CCN(c6ccc(C(=O)N[C@H]7CCC(=O)NC7=O)c(F)c6)CC5)CC4)cc3)C2(C)C)ccc1C#N [Compound A]", "quantity_name": "Vd/F", "val": 2320}

###

test_protocol: food/PPI effect on single-dose PK in healthy volunteers (phase 1)
Format: in vivo, human
run_conditions: male, human, plasma, oral, 40 mg Esomeprazole + 300 mg; read-out: Cmax, Geometric Mean (Geometric CV %)

{"molecule": "COc1cc(O[C@H]2C(C)(C)[C@H](NC(=O)c3ccc(N4CCC(CN5CCN(c6ccc(C(=O)N[C@H]7CCC(=O)NC7=O)c(F)c6)CC5)CC4)cc3)C2(C)C)ccc1C#N [Compound A]", "Cmax [ng/mL]": 117}

###

test_protocol: preliminary PK in mCRPC participants (Phase 1/2)
Format: in vivo, human
run_conditions: male, human, plasma, oral, 200 mg, 200 mg QD, Mean (CV %); read-out: AUC0-24 Day 21
quantity_name: AUC(0-t) (ng·h/mL)

{"compound": "COc1cc(O[C@H]2C(C)(C)[C@H](NC(=O)c3ccc(N4CCC(CN5CCN(c6ccc(C(=O)N[C@H]7CCC(=O)NC7=O)c(F)c6)CC5)CC4)cc3)C2(C)C)ccc1C#N [Compound A]", "quantity_name": "AUC(0-t)", "val": 11500}
